measurementProtocol: Single ascending oral dose study in healthy volunteers: plasma pharmacokinetics
Format: in vivo, human
particulars: human, plasma, oral, 175 mg; read-out: AUC0-48, Geometric Mean
recordedMetric: AUC(0-t) (ng·h/mL)
One number for each entry, in ng·h/mL.

What value of AUC(0-t) has been reported for the following compound? Cn1cc(S(=O)(=O)[C@@](C)(F)C2CCN(C(=O)Nc3ccon3)CC2)c(C(F)F)n1
32300

###

measurementProtocol: Food effect cross-over study, 200 mg (25 mg tablets), healthy volunteers: plasma pharmacokinetics
Format: in vivo, human
particulars: human, plasma, oral, 12 hours postdose, Fasted, read-out: Plasma concentration, Geometric Mean
recordedMetric: concentration at 12 h (µg/mL)
Give bare numbers, in µg/mL.

What value of concentration at 12 h has been reported for the following compound? Cn1cc(S(=O)(=O)[C@@](C)(F)C2CCN(C(=O)Nc3ccon3)CC2)c(C(F)F)n1
1.72

###

measurementProtocol: Single ascending oral dose study in healthy volunteers: plasma pharmacokinetics
Assay type: in vivo, human
particulars: human, plasma, oral, 24 Hours Postdose; 350 mg + 525 mg; read-out: Plasma concentration, Median
recordedMetric: concentration at 24 h (ng/mL)
Give bare numbers, in ng/mL.

What value of concentration at 24 h has been reported for the following molecule? Cn1cc(S(=O)(=O)[C@@](C)(F)C2CCN(C(=O)Nc3ccon3)CC2)c(C(F)F)n1
1210

###

measurementProtocol: Single ascending oral dose study in healthy volunteers: plasma pharmacokinetics
Format: in vivo, human
particulars: human, plasma, oral, across the dose groups; read-out: terminal t1/2
recordedMetric: half-life

What value of half-life has been reported for the following compound? Cn1cc(S(=O)(=O)[C@@](C)(F)C2CCN(C(=O)Nc3ccon3)CC2)c(C(F)F)n1
11 to 16 h

###

measurementProtocol: Food effect cross-over study, 200 mg (25 mg tablets), healthy volunteers: plasma pharmacokinetics
Assay type: in vivo, human
particulars: human, plasma, oral, 3 hours postdose, Fasted, read-out: Plasma concentration, Median
Protocol: This example describes a clinical study for establishing, in healthy volunteers, the effect of a high fat, high caloric meal on the PK profile of Compound I, as compared to administration of the drug in the fasted state. The study also was intended to determine the safety and tolerability after a single oral dose of Compound I in the fed and fasted state in healthy volunteers. […] Plasma drug concentrations were measured as described in Example 1 above. […]
recordedMetric: concentration at 3 h (ng/mL)
Numbers only, in ng/mL.

What value of concentration at 3 h has been reported for the following compound? Cn1cc(S(=O)(=O)[C@@](C)(F)C2CCN(C(=O)Nc3ccon3)CC2)c(C(F)F)n1 [Compound I]
2180

###

measurementProtocol: Single ascending oral dose study in healthy volunteers: plasma pharmacokinetics
Assay type: in vivo, human
particulars: human, plasma, oral, 25 mg; read-out: Half-Life Lambda Z, Geometric Mean (converted)
recordedMetric: half-life (h)
Answers are plain numbers, in h.

What value of half-life has been reported for the following molecule? Cn1cc(S(=O)(=O)[C@@](C)(F)C2CCN(C(=O)Nc3ccon3)CC2)c(C(F)F)n1 [Compound I]
13.1

###

measurementProtocol: Single ascending oral dose study in healthy volunteers: plasma pharmacokinetics
Format: in vivo, human
particulars: human, plasma, oral, 50 mg; read-out: Vz/F, Median
recordedMetric: Vd/F

What value of Vd/F has been reported for the following compound? Cn1cc(S(=O)(=O)[C@@](C)(F)C2CCN(C(=O)Nc3ccon3)CC2)c(C(F)F)n1
90.6 L

###

measurementProtocol: Single ascending oral dose study in healthy volunteers: plasma pharmacokinetics
Assay type: in vivo, human
particulars: human, plasma, oral, 350 mg + 525 mg; read-out: AUC0-last, Median
recordedMetric: AUC(0-t) (ng·h/mL)
Numbers only, in ng·h/mL.

What value of AUC(0-t) has been reported for the following molecule? Cn1cc(S(=O)(=O)[C@@](C)(F)C2CCN(C(=O)Nc3ccon3)CC2)c(C(F)F)n1 [Compound I]
68600

###

measurementProtocol: HFrEF study Part 1 (SAD Cohorts 1 and 2): plasma pharmacokinetics
Type: in vivo, human
particulars: human, plasma, oral, 525 mg, 525 mg single dose; read-out: Cmax, mean (SD)
recordedMetric: Cmax
Just so you know, I need the unit written after the number.

What value of Cmax has been reported for the following compound? Cn1cc(S(=O)(=O)[C@@](C)(F)C2CCN(C(=O)Nc3ccon3)CC2)c(C(F)F)n1
2720 ng/mL

###

measurementProtocol: Single ascending oral dose study in healthy volunteers: plasma pharmacokinetics
Assay type: in vivo, human
particulars: human, plasma, oral, 350 mg; read-out: AUC0-24, Geometric Mean
recordedMetric: AUC(0-t) (ng·h/mL)
Answers are plain numbers, in ng·h/mL.

What value of AUC(0-t) has been reported for the following compound? Cn1cc(S(=O)(=O)[C@@](C)(F)C2CCN(C(=O)Nc3ccon3)CC2)c(C(F)F)n1 [Compound I]
44700

###

measurementProtocol: Single ascending oral dose study in healthy volunteers: plasma pharmacokinetics
Format: in vivo, human
particulars: human, plasma, oral, 100 mg; read-out: Vz/F, Mean
recordedMetric: Vd/F (L)
Answers are plain numbers, in L.

What value of Vd/F has been reported for the following compound? Cn1cc(S(=O)(=O)[C@@](C)(F)C2CCN(C(=O)Nc3ccon3)CC2)c(C(F)F)n1 [Compound I]
77.9

###

measurementProtocol: HFrEF study Part 2 (MAD Cohorts A-D): plasma pharmacokinetics
Type: in vivo, human
particulars: human, plasma, oral, 100 mg, MAD Cohort D, 100 mg BID (with food); individual subjects; read-out: Cmax, SS
recordedMetric: Cmax (ng/mL)
Give bare numbers, in ng/mL.

What value of Cmax has been reported for the following compound? Cn1cc(S(=O)(=O)[C@@](C)(F)C2CCN(C(=O)Nc3ccon3)CC2)c(C(F)F)n1
5210

###

measurementProtocol: Single ascending oral dose study in healthy volunteers: plasma pharmacokinetics
Type: in vivo, human
particulars: human, plasma, oral, 525 mg; read-out: Tmax, Geometric Mean
recordedMetric: Tmax (h)
One number for each entry, in h.

What value of Tmax has been reported for the following compound? Cn1cc(S(=O)(=O)[C@@](C)(F)C2CCN(C(=O)Nc3ccon3)CC2)c(C(F)F)n1
4.94

###

measurementProtocol: Single ascending oral dose study in healthy volunteers: plasma pharmacokinetics
Format: in vivo, human
particulars: human, plasma, oral, 100 mg, 6 Hours Postdose; 100 mg; read-out: Plasma concentration, Mean
recordedMetric: concentration at 6 h

What value of concentration at 6 h has been reported for the following molecule? Cn1cc(S(=O)(=O)[C@@](C)(F)C2CCN(C(=O)Nc3ccon3)CC2)c(C(F)F)n1
947 ng/mL

###

measurementProtocol: Single ascending oral dose study in healthy volunteers: plasma pharmacokinetics
Format: in vivo, human
particulars: human, plasma, oral, 3 mg; read-out: Half-Life Lambda Z, Mean (converted)
recordedMetric: half-life
Just so you know, I need the unit written after the number.

What value of half-life has been reported for the following compound? Cn1cc(S(=O)(=O)[C@@](C)(F)C2CCN(C(=O)Nc3ccon3)CC2)c(C(F)F)n1
11.3 h

###

measurementProtocol: Single ascending oral dose study in healthy volunteers: plasma pharmacokinetics
Type: in vivo, human
particulars: human, plasma, oral, 25 mg; read-out: Tmax, Geometric Mean
recordedMetric: Tmax (h)
Numbers only, in h.

What value of Tmax has been reported for the following compound? Cn1cc(S(=O)(=O)[C@@](C)(F)C2CCN(C(=O)Nc3ccon3)CC2)c(C(F)F)n1 [Compound I]
4.64

###

measurementProtocol: Single ascending oral dose study in healthy volunteers: plasma pharmacokinetics
Assay type: in vivo, human
particulars: human, plasma, oral, 350 mg, 72 Hours Postdose; 350 mg; read-out: Plasma concentration, Mean
recordedMetric: concentration at 72 h (ng/mL)
Give bare numbers, in ng/mL.

What value of concentration at 72 h has been reported for the following molecule? Cn1cc(S(=O)(=O)[C@@](C)(F)C2CCN(C(=O)Nc3ccon3)CC2)c(C(F)F)n1 [Compound I]
128

###

measurementProtocol: Single ascending oral dose study in healthy volunteers: plasma pharmacokinetics
Type: in vivo, human
particulars: human, plasma, oral, 25 mg, 72 Hours Postdose; 25 mg; read-out: Plasma concentration, Median
Source text: This example describes the first-in-human study of Compound I. Based on its mechanism of action, Compound I may offer a targeted therapy for patients with DCM caused by genetic or nongenetic mechanisms. […] The concentrations of Compound I in human plasma and urine were quantitated by high performance liquid chromatography with tandem mass spectrometric detection (LC MS/MS) (Biological sample analysis study report Alturas AD17-726). […]
recordedMetric: concentration at 72 h
Just so you know, I need the unit written after the number.

What value of concentration at 72 h has been reported for the following compound? Cn1cc(S(=O)(=O)[C@@](C)(F)C2CCN(C(=O)Nc3ccon3)CC2)c(C(F)F)n1 [Compound I]
8.51 ng/mL

###

measurementProtocol: Single ascending oral dose study in healthy volunteers: plasma pharmacokinetics
Type: in vivo, human
particulars: human, plasma, oral, 3 mg; read-out: AUC0-48, Geometric Mean
recordedMetric: AUC(0-t) (ng·h/mL)
Answers are plain numbers, in ng·h/mL.

What value of AUC(0-t) has been reported for the following compound? Cn1cc(S(=O)(=O)[C@@](C)(F)C2CCN(C(=O)Nc3ccon3)CC2)c(C(F)F)n1
676
